All figures here come from patent US9988373B2.

ASSAY SYSTEM: human P2X7 receptor (Homo sapiens, UniProt Q99572, R270H)
Construct: expressed in transfected cells
Sequence (Q99572 whole entry R270H): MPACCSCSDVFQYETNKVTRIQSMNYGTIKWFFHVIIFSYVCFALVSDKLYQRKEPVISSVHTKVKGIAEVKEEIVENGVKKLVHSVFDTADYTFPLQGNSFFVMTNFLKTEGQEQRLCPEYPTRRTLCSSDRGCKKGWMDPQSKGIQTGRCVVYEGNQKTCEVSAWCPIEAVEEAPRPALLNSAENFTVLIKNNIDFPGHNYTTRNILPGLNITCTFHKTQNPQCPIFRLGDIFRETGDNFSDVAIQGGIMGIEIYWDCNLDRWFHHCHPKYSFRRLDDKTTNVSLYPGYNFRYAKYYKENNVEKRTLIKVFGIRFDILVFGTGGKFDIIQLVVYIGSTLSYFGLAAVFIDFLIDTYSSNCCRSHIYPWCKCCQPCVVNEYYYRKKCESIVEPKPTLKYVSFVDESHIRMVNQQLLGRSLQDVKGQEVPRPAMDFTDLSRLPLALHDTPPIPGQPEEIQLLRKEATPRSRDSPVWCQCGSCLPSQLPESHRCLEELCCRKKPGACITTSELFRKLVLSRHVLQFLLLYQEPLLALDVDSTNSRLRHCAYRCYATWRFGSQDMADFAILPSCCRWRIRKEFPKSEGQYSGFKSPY
PROTOCOL DESCRIPTION: Evaluation of a human P2X7 receptor inhibitory activity (Yo-Pro uptake, BzATP stimulation, FLIPR TETRA)
Format: cell-based
ASSAY SETUP: antagonistic activity for the human P2X7 receptor, 1321N1 cell transfected with the human P2X7 receptor gene, Yo-Pro fluorescence, class symbols
pIC50: −log10 of the molar value.
Entries and their pIC50

# annotated cases, reported pIC50 shown
COc1cccc(Cn2cc(OC)c(=O)nc2-c2cccc(C(F)(F)F)c2Cl)c1	> 7.30
COc1cn(Cc2cccc(CO)c2)c(-c2cccc(C(F)(F)F)c2Cl)nc1=O	7.00 to 7.30
COc1cn(Cc2ccccc2)c(-c2cnn(Cc3ccccc3)c2)nc1=O	5.00 to 6.00
CN(C)CCOc1cn(Cc2ccccc2)c(-c2cccc(C(F)(F)F)c2Cl)nc1=O	6.00 to 6.30

# pIC50 of `COc1cn(Cc2ccccc2)c(-c2cccc(Cl)c2C(F)(F)F)nc1=O` = 7.00 to 7.30

# pIC50 of `COc1cn(Cc2ccccc2C)c(-c2ccccc2F)nc1=O` = 5.00 to 6.00

# pIC50 of `O=c1ccn(Cc2ccccc2-c2ccccc2)c(-c2cccc(C(F)(F)F)c2Cl)c1` = 5.00 to 6.00

# pIC50 of `N#Cc1cccc(Cn2cc(N)c(=O)cc2-c2cccc(C(F)(F)F)c2Cl)c1` = 6.00 to 6.30

====

Entries and their IC50
ASSAY SYSTEM: human P2X7 receptor (Homo sapiens, UniProt Q99572, R270H)
Construct: expressed in transfected cells
PROTOCOL DESCRIPTION: Evaluation of a human P2X7 receptor inhibitory activity (Yo-Pro uptake, BzATP stimulation, FLIPR TETRA)
Format: cell-based
ASSAY SETUP: antagonistic activity for the human P2X7 receptor, 1321N1 cell transfected with the human P2X7 receptor gene, Yo-Pro fluorescence, class symbols

# annotated cases, reported IC50 shown
O=c1ccn(Cc2ccc(Cl)cc2)c(-c2cccc(C(F)(F)F)c2Cl)c1	1 to 10 µM
O=c1ccn(Cc2ccccc2)c(-c2cccc(C(F)(F)F)c2Cl)n1	0.1 to 0.5 µM

# IC50 of `COc1cn(Cc2ccccc2)c(-c2ccc(C(F)(F)F)cc2Cl)nc1=O` = 0.5 to 1 µM

# IC50 of `O=c1ccn(Cc2ccccc2CS(=O)(=O)c2ccccc2)c(-c2cccc(C(F)(F)F)c2Cl)c1` = 1 to 10 µM

# IC50 of `N#Cc1cccc(Cn2cc(Br)c(=O)cc2-c2cccc(C(F)(F)F)c2Cl)c1` = 0.1 to 0.5 µM

# IC50 of `O=c1ccn(Cc2ccccc2C(F)(F)F)c(-c2cccc(C(F)(F)F)c2Cl)c1` = 0.1 to 0.5 µM

# IC50 of `COc1cn(Cc2ccccc2C(F)(F)F)c(-c2cccc(C(F)(F)F)c2Cl)nc1=O` = < 0.05 µM

# IC50 of `O=c1ccn(Cc2ccccc2F)c(-c2cccc(C(F)(F)F)c2Cl)c1` = 0.1 to 0.5 µM

====

ASSAY SYSTEM: human P2X7 receptor (Homo sapiens, UniProt Q99572, R270H)
Construct: expressed in transfected cells
PROTOCOL DESCRIPTION: Evaluation of a human P2X7 receptor inhibitory activity (Yo-Pro uptake, BzATP stimulation, FLIPR TETRA)
Assay type: cell-based
ASSAY SETUP: antagonistic activity for the human P2X7 receptor, 1321N1 cell transfected with the human P2X7 receptor gene, Yo-Pro fluorescence, class symbols
Entries and their IC50

# annotated cases, reported IC50 shown
COc1cn(Cc2ccccc2C)c(-c2cccc(-c3ccccc3)c2)nc1=O [II-068]	1000 to 10000 nM
O=c1ccn(Cc2ccc(-c3ccccc3)cc2)c(-c2cccc(C(F)(F)F)c2Cl)c1 [Compound I-043]	1000 to 10000 nM
COc1cn(Cc2ccc(Cl)cc2)c(-c2cccc(C(F)(F)F)c2Cl)nc1=O [II-096]	100 to 500 nM

Here is another compound to look at.
# IC50 of N#Cc1cccc(Cn2ccc(=O)cc2-c2cccc(C(F)(F)F)c2Cl)c1 [Compound I-024] = 500 to 1000 nM
